Experiment: NCI Yeast Anticancer Drug Screen. Data for the mec2-1 strain (AID 157)
Settings: S. cerevisiae mec2-1 strain, stronger effect = higher value; at 50.0 µM unless noted
Description: Growth inhibition of yeast strains with defined genetic alterations is measured as a screen for potential anti-cancer activity. Selected strains with alterations in DNA damage repair or cell cycle control were exposed to compounds and growth inhibition was measured relative to vehicle treated controls. The strain used in this assay is mec2-1
The panel holds about 79,000 compounds, 15% with a hit somewhere; the sample as a whole holds those more often.
VALUE_KIND: growth inhibition (%)
Write it as a number; the unit % goes unstated.

Below, 6 compounds whose answers are already recorded.
CC1=NN(c2ccc(S(=O)(=O)O)cc2)C(=O)C1N=Nc1ccc(-c2ccc(N=Nc3ccc(O)c(C(=O)O)c3)c(C)c2)cc1C (configuration not stated) = 20.9
COC(=O)CCC(C)C1CCC2(C)C3=C(C(=O)CC12C)C1(C)CCC(O)C(C)(C)C1=C(O)C3 (configuration not stated) = 74.2
OC1(C2NCCc3ccccc32)CCN(CCc2ccccc2)CC1 (configuration not stated) = 10.7
COc1cccc(N)c1N = -15.2
CC(=O)OC(CCC1CO1)OC(C)=O (configuration not stated) = 11.6
Cc1ncc(CO)c(CO)c1OCC(O)CN1CCN(c2ccc(F)cc2)CC1 (configuration not stated) = -2.65

Name the reported growth inhibition value associated with the compound CCOC(=O)/C(C#N)=C/c1cccc([N+](=O)[O-])c1 4.8

Name the reported growth inhibition value associated with the compound COc1ccc(-c2nc(Sc3c([N+](=O)[O-])ncn3C)n[nH]2)cc1 5.75

Name the reported growth inhibition value associated with the compound CCOC(=O)c1cc(C)ncc1N 7.4

Name the reported growth inhibition value associated with the compound CC(=O)c1cccc(NC(=O)Oc2ccc(-c3ccccc3)cc2Cl)c1 99.6

Name the reported growth inhibition value associated with the compound Cc1cc(N(CCC#N)CCC#N)ccc1/C=N/NC(=O)c1ccccc1 -2.35

Name the reported growth inhibition value associated with the compound O=C(OC(C1COCO1)C(O)C1COCO1)c1ccccc1 (configuration not stated) -8.85

* * *

Experiment: NCI Yeast Anticancer Drug Screen. Data for the rad50 strain (AID 155);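 also: 0% = growth of vehicle-only cultures of the same strain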
Settings: S. cerevisiae rad50 strain growth inhibition, stronger effect = higher value; at 50.0 µM unless noted
The panel holds about 79,000 compounds, 15% with a hit somewhere; the sample as a whole holds those more often.
VALUE_KIND: growth inhibition (%)
Write it as a number; the unit % goes unstated.

Below, 4 molecules whose answers are already recorded.
C/C=C/C#C/C=C1/C=CC(=O)O1 = -5.95
CC1(C)SC=C2C1=CSC2(C)C = 0.2
O=S(=O)(O)c1cc(N=[N+]([O-])c2ccc(N=Nc3ccccc3)cc2S(=O)(=O)O)ccc1/C=C/c1ccc(N=[N+]([O-])c2ccc(N=Nc3ccccc3)cc2S(=O)(=O)O)cc1S(=O)(=O)O = 28.6
c1ccc(CC2=NCCO2)cc1 = -5.55

Query molecule follows.
Name the reported growth inhibition value associated with the molecule COC(=O)C(Br)C(Br)c1cc(OC)c(OC)c(OC)c1 (stereo not given) 48.2

* * *

Assay: NCI Yeast Anticancer Drug Screen. Data for the mec2-1 strain (AID 157)
Settings: S. cerevisiae mec2-1 strain, stronger effect = higher value; at 50.0 µM unless noted
Protocol: Growth inhibition of yeast strains with defined genetic alterations is measured as a screen for potential anti-cancer activity. Selected strains with alterations in DNA damage repair or cell cycle control were exposed to compounds and growth inhibition was measured relative to vehicle treated controls. The strain used in this assay is mec2-1
About 79,000 compounds went through this panel and 15% of them were active in at least one assay; those are over-represented in the sample as a whole.
Mark True for reported growth inhibition of -20% or greater; mark False for anything smaller.

Field: example entries. Status: answers known.
NNC(=S)N/N=C/c1ccc([N+](=O)[O-])s1 = True
CCOC(=O)c1cc([N+](=O)[O-])cnc1C = True
Nn1c(NNC(=O)C(=O)Nc2cc(Cl)c(Cl)cc2Cl)n[nH]c1=S = True
O=C1OCCOCCOCCOCCOCCOC(=O)c2cccc1n2 = True
O=C(Cc1csc2ccccc12)NCC1CC1 = True

Item Cc1ccc(NCC(=O)N2CC(=O)Nc3ccccc32)c(C)c1 with growth inhibition of -20% or above? False
